# target: Alpha-2C adrenergic receptor (Homo sapiens)
# protocol-summary: compounds altering alpha2C-coupled GIRK flux – cell-based, HEK293 alpha2C/GIRK1/2, thallium flux, primary screen (AID 624);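 note: slope of fluorescence ratio to pre-addition baseline per second over 15 to 24 s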
# condition-notes: thallium flux BTC fluorescence, at 10 µM, actives lie on both sides
Classes based on slope: LOW = under 0.005, MEDIUM = from 0.005 up to 0.006, HIGH = 0.006 and over

Q: Consider Cc1cc(Cl)ccc1NC(=O)CSc1nnc(Cc2cccs2)n1Cc1ccco1 . To which slope class does it belong?
A: HIGH

Q: Here is the next compound: CN(C1CCCCC1)S(=O)(=O)c1ccc(S(=O)(=O)N2CCCC2)cc1
A: MEDIUM

Q: Here is the next compound: COc1cc2c(cc1OC)C(c1ccccc1O)N(C1CC(=O)N(c3ccccc3)C1=O)CC2 (stereo not given)
A: HIGH

Q: Here is the next compound: O=C(c1sc2ccccc2c1Cl)N(Cc1cccs1)C1CCS(=O)(=O)C1 (stereo not given)
A: HIGH

Q: Here is the next compound: CCc1nnc(NC(=O)CCC(=O)Nc2ccccc2)s1
A: MEDIUM

Q: Here is the next compound: CN1CCc2c(sc3c2C(=O)NC(c2cccc(OC(=O)c4cccs4)c2)N3)C1 (stereo not given)
A: LOW

---

# protocol-summary: endothelial E-selectin expression blockers – imaging, HUVEC, immunofluorescence, MLSMR starter and 10KST1 sets, primary screen (AID 487);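 note: 100% = median nuclei count of all wells on the same plate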
# condition-notes: HUVEC TNFalpha-induced E-selectin immunofluorescence imaging, at 2 µM; measured here: cell number, toxicity
readout: nuclei count (%)
The reply should contain only the number, in %.

Q: Given the entry CCCCN(C)Cc1c(O)ccc2c(-c3ccccc3)cc(=O)oc12 , report its measured nuclei count.
A: 96.4

Q: Here is the next compound: COc1ccc2cc(C#N)c(NC(C)C)nc2c1
A: 108

Q: Here is the next compound: N#Cc1c(N2CCCC2)nc(N)c2c(N)nc(N3CCCC3)cc12
A: 160

Q: Here is the next compound: Nc1nonc1-n1nnc(C(=O)c2ccccc2)c1-c1ccccc1
A: 103

Q: Here is the next compound: COc1ccccc1N1CCN(C(CNS(=O)(=O)c2cc(F)ccc2F)c2cccnc2)CC1 (stereo not given)
A: 108

Q: Here is the next compound: CCOCCCNS(=O)(=O)c1ccc2c(c1)oc(=O)n2CC(=O)OCC
A: 82.5

Q: Here is the next compound: COc1ccc2c(-c3cccnc3)cc(=O)[nH]c2c1
A: 79.4

Q: Here is the next compound: COc1cc(OC)c(OC)cc1CN(C)CCc1ccccn1
A: 109

Q: Here is the next compound: CC(C)(C)n1ncc2c(=O)n(CC(=O)c3ccccc3)cnc21
A: 105

Q: Here is the next compound: O=C(CN(Cc1ccc(F)cc1)C(=O)Cn1nnc2ccccc21)NCC1CCCO1 (stereo not given)
A: 84

Q: Here is the next compound: COc1cc(NC(=O)C2CC(c3cccc(OC)c3OC)=NO2)cc(OC)c1OC (stereo not given)
A: 104

Q: Here is the next compound: CC1(C)CN=C(N2CCN(c3ncnc4sc5c(c34)CCCC5)CC2)S1
A: 113

Q: Here is the next compound: CC1=NC(Nc2nc(C)c3ccccc3n2)=NC(C)(C)C1
A: 111

Q: Here is the next compound: COc1ccccc1C(=O)NCC(=O)Nc1ccccc1
A: 27.8

Q: Here is the next compound: O=C(Nc1ccccc1)N(Cc1cccnc1)Cc1ccco1
A: 103

Q: Here is the next compound: COc1ccc(Cc2nn3c(-c4cc(OC)c(OC)c(OC)c4)nnc3s2)cc1
A: 103

Q: Here is the next compound: COc1ccc(Cl)c(NC(=O)NCCN2CCN(c3ccccc3)CC2)c1
A: 119

Q: Here is the next compound: COCCN(CC(=O)Nc1ccccc1C)S(=O)(=O)c1ccc(S(=O)(=O)N2CCCC2)cc1
A: 69.8

Q: Here is the next compound: CCN(CC(=O)Nc1ccc2c(c1)OCCO2)Cc1cc(=O)oc2cc(C)c(C)cc12
A: 119

Q: Here is the next compound: N#C/C(C(=O)c1ccccc1)=C1/CCCN1
A: 134

Q: Here is the next compound: Cc1cc(NC(=O)CSc2nc3c(c(-c4cccnc4)c2C#N)CCC3)no1
A: 88.6

Q: Here is the next compound: Cc1ccc(-c2cc(C(=O)NCc3ccc4c(c3)OCO4)no2)cc1
A: 101

Q: Here is the next compound: CCCCCC(=O)N(CN1C(=O)CCC1=O)c1ccccc1
A: 111

Q: Here is the next compound: N#Cc1cnc2sc3ccccc3n2c1=N
A: 106

Q: Here is the next compound: O=C(c1cnn2c(C(F)F)cc(-c3ccccc3)nc12)N1CCN2CCCC2C1 (stereo not given)
A: 129

Q: Here is the next compound: CCOC(=O)N1CCN(C(=O)CN(C2CCCCC2)S(=O)(=O)c2ccc(F)cc2)CC1
A: 108

Q: Here is the next compound: COc1ccc(C(=O)CSc2nnc(CNc3ccc(C)cc3C)o2)cc1
A: 199

Q: Here is the next compound: COc1cc(CC(=O)Oc2ccc3c(c2)OCO3)cc(OC)c1OC
A: 101

Q: Here is the next compound: CCCNC(=O)c1cc(-c2ccco2)on1
A: 98.4

Q: Here is the next compound: CC(=O)c1c(C)nn(CC(O)COc2ccc3c(c2)CCC3)c1C (stereo not given)
A: 126

Q: Here is the next compound: CC(C)C(=O)Nc1ccc(-c2nc3cccnc3o2)cc1
A: 107

Q: Here is the next compound: C=CCn1c(SCC(=O)Nc2ccc3c(c2)OCO3)nc2ccccc2c1=O
A: 90.6

Q: Here is the next compound: CCc1ccc(C(=O)NC2CCCCC2)s1
A: 104

Q: Here is the next compound: CCCC(=O)Nc1ccccc1NC(=O)CCC
A: 109

Q: Here is the next compound: COc1ccc2c(c1)CCc1c(C(=O)N3CC4(C)CC3CC(C)(C)C4)noc1-2 (stereo not given)
A: 104
